B1: FEM1B (parent)
chain: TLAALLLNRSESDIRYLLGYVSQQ

variants of: B1; assay: protein stability index of a GFP-peptide fusion (GPS, HEK-293T) (PSI 1-6); higher = more stable; conditions: c terminus: a fixed tail appended;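 note: lentivirally expressed fusions sorted by FACS into six bins by GFP to DsRed ratio, PSI derived from sequencing read proportions per bin multiplied by bin number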
This listing pairs variants with measured protein stability index.

// below: answered variants
S12G 3.69
Y20F 1.29
L6C 1.21
D13M 3.99
Q23C 3.58
N8R 3

Param item = A3V ; retrieve measured protein stability index.
3.73

Param item = L6G ; retrieve measured protein stability index.
1.97

Param item = D13Q ; retrieve measured protein stability index.
2.04

Param item = L17R ; retrieve measured protein stability index.
2.04

Param item = T1W ; retrieve measured protein stability index.
1.93

Param item = Q24N ; retrieve measured protein stability index.
2.6

Param item = Q24C ; retrieve measured protein stability index.
3.34
